Tested on: HCV genotype 1a (H77 strain) replicon in HUH-7 cells
assay: HCV replicon luciferase reporter assay, genotype 1a
Format: cell-based
recorded-conditions: Hepatitis C virus, Huh-7, 72 h, HCV genotype 1a replicon luciferase, 3 days incubation, read-out: LE_1a (EC50)
pEC50: −log10 of the molar value.

chem-smiles | assay-system | pEC50
CC[C@@H]1C[C@H](C)CC/C=C\[C@@H]2C[C@@]2(C(=O)NS(=O)(=O)C2(C)CC2)NC(=O)[C@@H]2C[C@@H](Oc3ncc(OC)c4ccc(F)cc34)CN2C(=O)[C@H]1NC(=O)N1CCOCC1 | HCV genotype 1a (H77 strain) replicon in HUH-7 cells | 9.14
CC[C@@H]1C[C@H](C)CC/C=C\[C@@H]2C[C@@]2(C(=O)NS(=O)(=O)C2CC2)NC(=O)[C@@H]2C[C@@H](Oc3ncc(N4CCOCC4)c4cc(OC)c(F)cc34)CN2C(=O)[C@H]1NC(=O)OC(C)(C)C | HCV genotype 1a (H77 strain) replicon in HUH-7 cells | 8.91
CCOc1cc2cc(OC)ccc2c(O[C@@H]2C[C@H]3C(=O)N[C@]4(C(=O)NS(=O)(=O)C5(C)CC5)C[C@H]4/C=C\CC[C@@H](C)C[C@@H](C)[C@H](NC(=O)OC(C)(C)C)C(=O)N3C2)n1 | HCV genotype 1a (H77 strain) replicon in HUH-7 cells | 9.21
CC[C@@H]1C[C@@H](C)CC/C=C\[C@@H]2C[C@@]2(C(=O)NS(=O)(=O)C2CC2)NC(=O)[C@@H]2C[C@@H](Oc3nccc4c5c(ccc34)OCCO5)CN2C(=O)[C@H]1NC(=O)OC(C)(C)C(C)(F)F | HCV genotype 1a (H77 strain) replicon in HUH-7 cells | 8.19
